# system_tested: murine CDH6 protein (mCDH6 ECD-his) (mouse) (UniProt P97326)
# Sequence (P97326 19-615 limits assumed, form in doubt): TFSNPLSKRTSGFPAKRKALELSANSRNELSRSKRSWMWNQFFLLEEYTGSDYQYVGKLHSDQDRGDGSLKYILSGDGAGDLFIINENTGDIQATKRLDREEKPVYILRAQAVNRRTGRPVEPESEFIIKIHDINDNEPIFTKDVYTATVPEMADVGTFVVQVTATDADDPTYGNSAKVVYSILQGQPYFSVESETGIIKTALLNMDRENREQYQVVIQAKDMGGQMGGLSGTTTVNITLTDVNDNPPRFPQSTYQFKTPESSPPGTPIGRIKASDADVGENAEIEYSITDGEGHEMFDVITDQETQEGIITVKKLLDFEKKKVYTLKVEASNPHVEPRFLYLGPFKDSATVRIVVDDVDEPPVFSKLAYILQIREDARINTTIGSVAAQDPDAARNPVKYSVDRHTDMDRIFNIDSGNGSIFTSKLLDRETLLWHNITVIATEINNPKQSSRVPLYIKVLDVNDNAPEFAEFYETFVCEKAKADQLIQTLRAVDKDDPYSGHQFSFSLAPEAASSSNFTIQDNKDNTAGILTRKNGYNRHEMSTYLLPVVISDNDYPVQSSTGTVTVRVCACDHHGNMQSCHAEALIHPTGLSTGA
# experiment: ELISA, antigen coated
Provide the reported EC50 of each item.
One number for each entry, in nM.

{"binder": "NOV0712 (antibody, human IgG1, kappa, V domains shown) VH: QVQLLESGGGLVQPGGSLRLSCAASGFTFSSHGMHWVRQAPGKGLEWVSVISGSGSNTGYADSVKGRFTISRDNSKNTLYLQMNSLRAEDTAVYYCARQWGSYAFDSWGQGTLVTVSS VL: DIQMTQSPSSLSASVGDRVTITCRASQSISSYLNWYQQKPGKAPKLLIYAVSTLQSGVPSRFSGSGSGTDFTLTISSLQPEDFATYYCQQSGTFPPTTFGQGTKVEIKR", "EC50 (nM)": 0.039}

I have 4 binders here; please give me EC50 for each one.
1. CHI-CDH6-4 (antibody, human IgG1, kappa, V domains shown) VH: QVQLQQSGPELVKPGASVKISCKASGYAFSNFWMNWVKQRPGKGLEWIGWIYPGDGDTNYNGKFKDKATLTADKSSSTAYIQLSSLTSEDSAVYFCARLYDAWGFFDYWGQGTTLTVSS VL: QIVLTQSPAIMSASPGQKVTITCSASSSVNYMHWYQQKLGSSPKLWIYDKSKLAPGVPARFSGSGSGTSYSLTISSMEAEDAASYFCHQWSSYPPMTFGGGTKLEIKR
2. CHI-CDH6-9 (antibody, human IgG1, kappa, V domains shown) VH: QVQLQQPGAELVKPGASVKLSCKASGYTFTGYWMHWVRQRPGQGLEWIGEINPNNGGTNCNEQFKNKATLTVDKSSSTAYMQLSSLTSEDSAVFYCTISFGNYLFFDVWGAGTTVTVSS VL: DIQMTQSPASLAASVGETITITCQASENIYFSLAWYQQKQGKSPQLLIYNANTLEDGVPSRFVGSGSGTQYSMKINSIQPEDTATYFCDQTYDFPWTFGGGTKLEIKR
3. CHI-CDH6-6 (antibody, human IgG1, kappa, V domains shown) VH: EVQLQQSGPELVKPGDSVKMSCKASGYTFTDYYMAWVRQSHRKSLEWIGYIFPNSGGTDYSQKFKGKATLTVDKSSSTVYMELHSLTSEDSAVYYCARELGADYGDYYAMDHWGQGTSVSVSS VL: DIQMTQSPASLSASVGETVTITCRASENIDSYLAWYQQKQGKSPQLLVYSATLLADGVPSRFSGSGSGTQYSLKINSLKSEDVARYYCQHYYRTPPTFGSGTKLEIKR
4. CHI-CDH6-5 (antibody, human IgG1, kappa, V domains shown) VH: QVQLQQSGAELVRPGTSVKMSCKAAEYTFTNYWIGWVKQRPGHGLEWIGDLYPGGDHANYNEKFEGKATLTADTSSSTAYMQLSSLTSEDSAIYYCARGMLTTGFDSWGQGTTLTVSS VL: DIVMSQSPSSLAVSAGEKVTMSCKSSQSLFNSRTRKNYLAWYQQKPGQSPKLLIYWASTRESGVPDRFTGSGSGTDFTLTISSVQAEDLAVYYCKQSYYLRTFGGGTKLEIKR

Result:
1. 0.035
2. 0.022
3. 0.025
4. 0.046

Hello, the source for this data is patent EP4663661A1, in case you need it.
